- protocolDescription: AUC (0 to infinity) in male C57BL/6J mouse at 10 mg/kg, SC by LC-MS analysis
- Assay type: ADME, organism-based
- conditionSummary: in vivo

[
  {
    "smilesString": "CCCCC(=O)N1CC2(C1)CN(c1ccccc1-c1nnn[nH]1)C2",
    "AUC(0-inf) (ng·h/mL)": 4080
  }
]

###

- protocolDescription: AUC (0 to infinity) in male C57BL/6J mouse at 10 mg/kg, po by LC-MS analysis
- Type: ADME, organism-based
- conditionSummary: in vivo

[
  {
    "smilesString": "CCCCC(=O)N1CC2(C1)CN(c1ccccc1-c1nnn[nH]1)C2",
    "readingUnit": "ng·h/mL",
    "AUC(0-inf)": 1730
  }
]

Cited source for all entries: ChEMBL document CHEMBL6096705
